Tested on: CEM cells HIV-1 protection, formazan growth assay
Assay: NCI AIDS Antiviral Assay;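 active = compounds giving half or more protection of infected cells from virus-caused growth loss, again on retest; inactive = the rest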
Outcomes: 1.0 for active, 0.0 for inactive

[[record]]
compound = "CC(=O)Nc1ccc(N)c2cc(S(=O)(=O)O)ccc12"
qualitative_label = 0.0

[[record]]
compound = "COc1cc(/C=C2\\C(=O)N(c3ccccc3Cl)C(c3ccccc3)S2(=O)=O)cc(OC)c1OC (stereo not given)"
qualitative_label = 0.0

[[record]]
compound = "COc1ccc(SCc2ccc(C(=O)O)cc2)cc1"
qualitative_label = 0.0

[[record]]
compound = "COc1ccc2c(c1)C(=O)N1CSCC1C(=O)S2 (stereo not given)"
qualitative_label = 0.0

[[record]]
compound = "CCOP(=S)(N/N=C\\C(C)(C)C1CCCCC1)OCC"
qualitative_label = 0.0

[[record]]
compound = "COc1ccc(N2C(=O)C3c4[nH]c5ccc(OC)cc5c4C4CCC(c5ccccc5)CC4C3C2=O)cc1 (stereo not given)"
qualitative_label = 0.0

[[record]]
compound = "Nc1nc2c(ncn2CC2OC(CO)C(CO)O2)c(=O)[nH]1 (stereo not given)"
qualitative_label = 0.0

[[record]]
compound = "C1CCC2(CC1)SSC1(CCCCC1)S2"
qualitative_label = 0.0

[[record]]
compound = "C/C=C/CC(C)C(OS(=O)(=O)O)C1C(=O)NC(CC)C(=O)N(C)CC(=O)N(C)C(CC(C)C)C(=O)NC(C(C)C)C(=O)N(C)C(CC(C)C)C(=O)NC(C)C(=O)NC(C)C(=O)N(C)C(CC(C)C)C(=O)N(C)C(CC(C)C)C(=O)N(C)C(C(C)C)C(=O)N1C (stereo not given)"
qualitative_label = 1.0

[[record]]
compound = "CN(C)CCNC(=O)Cn1ccc(=O)c2c([N+](=O)[O-])cccc21"
qualitative_label = 0.0

[[record]]
compound = "Nc1ccc2c(SCC(=O)Nc3ccccc3-c3ccccc3NC(=O)CSc3c4ccccc4nc4cc(N)ccc34)c3ccccc3nc2c1"
qualitative_label = 0.0

[[record]]
compound = "COc1cc2oc(=O)cc(C)c2c(OC)c1OC"
qualitative_label = 0.0

[[record]]
compound = "C/C(=N/Nc1ccc([N+](=O)[O-])cc1[N+](=O)[O-])c1ccccc1"
qualitative_label = 0.0

[[record]]
compound = "C=CCN1C(=O)CS/C1=N\\NC(=O)CSc1nc2ccccc2c(=O)n1CC"
qualitative_label = 0.0

[[record]]
compound = "CCCc1cc(=O)oc2c3c(c4c(c12)OC(C)(C)C=C4)O[C@@H](C)[C@H](C)[C@@H]3O[Si](C)(C)C(C)(C)C"
qualitative_label = 0.0

[[record]]
compound = "Cc1cccc(C)c1C1(Cl)C(=O)c2ccccc2C1=O"
qualitative_label = 0.0

[[record]]
compound = "O=C1/C(=C/c2ccc(OC(=O)c3ccccc3)cc2)CCC/C1=C\\c1ccc(OC(=O)c2ccccc2)cc1"
qualitative_label = 0.0

[[record]]
compound = "O=C(c1ccc(Cl)cc1Cl)N(/N=C/C=C/c1ccccc1)c1nnc(-c2ccccc2)c(-c2ccccc2)n1"
qualitative_label = 0.0

[[record]]
compound = "COc1ccc(/C=C2\\CCCc3ccccc3C2=O)cc1"
qualitative_label = 0.0

[[record]]
compound = "COC(=O)c1ccc2n1C1CC3CC(CC2C3)C1"
qualitative_label = 0.0

